Where do these numbers come from? They come from PubChem BioAssay AID1963978.

# Tested on: 616215-338-R-J1-PDC spheroids with HUVEC/MSC, viability
# procedure-summary: Anticancer human tumor 616215-338-R-J1-PDC patient-derived colon adenocarcinoma cell line growth inhibition [PI3K]
# condition-context: second compound 0.01 µM; first compound 0.1 µM; active compounds read low

| compound | viability, T/C (%) |
| --- | --- |
| C#Cc1c(F)ccc2cc(O)cc(-c3ncc4c(N5CC6CCC(C5)N6)nc(OCC56CCCN5CC(F)C6)nc4c3F)c12 (centres undefined) + COc1c(OCCCN2CCOCC2)ccc2c3n(c(=NC(=O)c4cnc(N)nc4)nc12)CCN3 | 89.7 |
| CCCS(=O)(=O)Nc1ccc(F)c(C(=O)c2c[nH]c3ncc(-c4ccc(Cl)cc4)cc23)c1F + CC(Nc1ccc2c(c1)OCCn1cc(N3C(=O)OCC3C(F)F)nc1-2)C(N)=O | 93.1 |
| CC1(C)CCC(Nc2ncc(C(F)(F)F)c(-c3c[nH]c4c(P(C)(C)=O)c(C#N)ccc34)n2)CN1 (centres undefined) + COc1c(OCCCN2CCOCC2)ccc2c3n(c(=NC(=O)c4cnc(N)nc4)nc12)CCN3 | 29 |
| CNC(=O)c1ccc(N2C(=S)N(c3ccc(C#N)c(C(F)(F)F)c3)C(=O)C2(C)C)cc1F + CC(Nc1ccc2c(c1)OCCn1cc(N3C(=O)OCC3C(F)F)nc1-2)C(N)=O | 101 |

---

# Tested on: 616215-338-R-J1-PDC spheroids with HUVEC/MSC, viability
# procedure-summary: Anticancer human tumor 616215-338-R-J1-PDC cell line growth inhibition [PI3K];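 also: spheroids exposed to agents for seven days before the viability read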
# condition-context: second compound 0.316 µM; first compound 0.1 µM; active compounds read low
The compounds listed here are annotated with their viability, T/C.

| compound | viability, T/C |
| --- | --- |
| C=CC(=O)N1CCN(c2nc(=O)n(-c3c(C)ccnc3C(C)C)c3nc(-c4c(O)cccc4F)c(F)cc23)C(C)C1 (stereo not drawn) + COc1c(OCCCN2CCOCC2)ccc2c3n(c(=NC(=O)c4cnc(N)nc4)nc12)CCN3 | 36.7% |
| C[C@@H](NC(=O)c1ncnc(N)c1Cl)c1ncc(C(=O)Nc2cc(C(F)(F)F)c(Cl)cn2)s1 + Cc1nc(NC(=O)N2CCCC2C(N)=O)sc1-c1ccnc(C(C)(C)C(F)(F)F)c1 | 110% |
| CC(=O)c1c(C)c2cnc(Nc3ccc(N4CCNCC4)cn3)nc2n(C2CCCC2)c1=O + COc1c(OCCCN2CCOCC2)ccc2c3n(c(=NC(=O)c4cnc(N)nc4)nc12)CCN3 | 23.4% |

---

Below, each of the compounds is paired with its reported viability, T/C value.
# Tested on: 616215-338-R-J1-PDC spheroids with HUVEC/MSC, viability
# procedure-summary: Anticancer human tumor 616215-338-R-J1-PDC cell line growth inhibition [PI3K];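 also: spheroids exposed to agents for seven days before the viability read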
# condition-context: second compound 0.0316 µM; first compound 0.1 µM; active compounds read low

| compound | viability, T/C / % |
| --- | --- |
| C[C@@H](NC(=O)c1ncnc(N)c1Cl)c1ncc(C(=O)Nc2cc(C(F)(F)F)c(Cl)cn2)s1 + CC(Nc1ncnc2nc[nH]c12)c1cc2cccc(Cl)c2c(=O)n1-c1ccccc1 | 115 |
| CNC(=O)c1ccc(N2C(=S)N(c3ccc(C#N)c(C(F)(F)F)c3)C(=O)C2(C)C)cc1F + CC(Nc1ncnc2nc[nH]c12)c1cc2cccc(Cl)c2c(=O)n1-c1ccccc1 | 107 |
| CNC(=O)c1ccc(N2C(=S)N(c3ccc(C#N)c(C(F)(F)F)c3)C(=O)C2(C)C)cc1F + Cc1nc(NC(=O)N2CCCC2C(N)=O)sc1-c1ccnc(C(C)(C)C(F)(F)F)c1 | 95.1 |
| CC(=O)c1c(C)c2cnc(Nc3ccc(N4CCNCC4)cn3)nc2n(C2CCCC2)c1=O + CC(Nc1ncnc2nc[nH]c12)c1cc2cccc(Cl)c2c(=O)n1-c1ccccc1 | 102 |
| Cn1ncc(Cl)c1-c1cc(C(=O)NC(CN)Cc2cccc(F)c2)sc1Cl (centres undefined) + Cc1nc(NC(=O)N2CCCC2C(N)=O)sc1-c1ccnc(C(C)(C)C(F)(F)F)c1 | 93.5 |
| CC(C)n1nc(-c2ccc3oc(N)nc3c2)c2c(N)ncnc21 + CC(Nc1ccc2c(c1)OCCn1cc(N3C(=O)OCC3C(F)F)nc1-2)C(N)=O | 82.1 |
| CC(C)n1nc(-c2ccc3oc(N)nc3c2)c2c(N)ncnc21 + Cc1nc(NC(=O)N2CCCC2C(N)=O)sc1-c1ccnc(C(C)(C)C(F)(F)F)c1 | 93.2 |
| Cn1nccc1Nc1nccc(-c2ccn(C(CO)c3ccc(Cl)c(F)c3)c(=O)c2)n1 (centres undefined) + CC(Nc1ncnc2nc[nH]c12)c1cc2cccc(Cl)c2c(=O)n1-c1ccccc1 | 89.2 |
| Cn1ncnc1[C@H]1c2n[nH]c(=O)c3cc(F)cc(c23)N[C@@H]1c1ccc(F)cc1 + COc1c(OCCCN2CCOCC2)ccc2c3n(c(=NC(=O)c4cnc(N)nc4)nc12)CCN3 | 95.7 |
| CC(C)n1nc(-c2ccc3oc(N)nc3c2)c2c(N)ncnc21 + CC(Nc1ncnc2nc[nH]c12)c1cc2cccc(Cl)c2c(=O)n1-c1ccccc1 | 86.9 |
| CC(=O)c1c(C)c2cnc(Nc3ccc(N4CCNCC4)cn3)nc2n(C2CCCC2)c1=O + COc1c(OCCCN2CCOCC2)ccc2c3n(c(=NC(=O)c4cnc(N)nc4)nc12)CCN3 | 90.7 |
| CCCS(=O)(=O)Nc1ccc(F)c(C(=O)c2c[nH]c3ncc(-c4ccc(Cl)cc4)cc23)c1F + CC(Nc1ncnc2nc[nH]c12)c1cc2cccc(Cl)c2c(=O)n1-c1ccccc1 | 93.2 |
| Cn1nccc1Nc1nccc(-c2ccn(C(CO)c3ccc(Cl)c(F)c3)c(=O)c2)n1 (centres undefined) + Cc1nc(NC(=O)N2CCCC2C(N)=O)sc1-c1ccnc(C(C)(C)C(F)(F)F)c1 | 81.5 |
| CC1(C)CCC(CN2CCN(c3ccc(C(=O)NS(=O)(=O)c4ccc(NCC5CCOCC5)c([N+](=O)[O-])c4)c(Oc4cnc5[nH]ccc5c4)c3)CC2)=C(c2ccc(Cl)cc2)C1 + CC(Nc1ccc2c(c1)OCCn1cc(N3C(=O)OCC3C(F)F)nc1-2)C(N)=O | 94.3 |
| C#Cc1c(F)ccc2cc(O)cc(-c3ncc4c(N5CC6CCC(C5)N6)nc(OCC56CCCN5CC(F)C6)nc4c3F)c12 (centres undefined) + COc1c(OCCCN2CCOCC2)ccc2c3n(c(=NC(=O)c4cnc(N)nc4)nc12)CCN3 | 98.1 |
| CCN1CCN(Cc2ccc(Nc3ncc(F)c(-c4cc(F)c5nc(C)n(C(C)C)c5c4)n3)nc2)CC1 + CC(Nc1ncnc2nc[nH]c12)c1cc2cccc(Cl)c2c(=O)n1-c1ccccc1 | 98.6 |
| Cn1ncc(Cl)c1-c1cc(C(=O)NC(CN)Cc2cccc(F)c2)sc1Cl (centres undefined) + COc1c(OCCCN2CCOCC2)ccc2c3n(c(=NC(=O)c4cnc(N)nc4)nc12)CCN3 | 104 |
| C[C@@H](NC(=O)c1ncnc(N)c1Cl)c1ncc(C(=O)Nc2cc(C(F)(F)F)c(Cl)cn2)s1 + Cc1nc(NC(=O)N2CCCC2C(N)=O)sc1-c1ccnc(C(C)(C)C(F)(F)F)c1 | 101 |
| CCN1CCN(Cc2ccc(Nc3ncc(F)c(-c4cc(F)c5nc(C)n(C(C)C)c5c4)n3)nc2)CC1 + CC(Nc1ccc2c(c1)OCCn1cc(N3C(=O)OCC3C(F)F)nc1-2)C(N)=O | 107 |
| CNC(=O)c1ccc(N2C(=S)N(c3ccc(C#N)c(C(F)(F)F)c3)C(=O)C2(C)C)cc1F + CC(Nc1ccc2c(c1)OCCn1cc(N3C(=O)OCC3C(F)F)nc1-2)C(N)=O | 94 |
| CC(C)NCC(C(=O)N1CCN(c2ncnc3c2C(C)CC3O)CC1)c1ccc(Cl)cc1 (centres undefined) + CC(Nc1ccc2c(c1)OCCn1cc(N3C(=O)OCC3C(F)F)nc1-2)C(N)=O | 104 |
| Cn1nccc1Nc1nccc(-c2ccn(C(CO)c3ccc(Cl)c(F)c3)c(=O)c2)n1 (centres undefined) + CC(Nc1ccc2c(c1)OCCn1cc(N3C(=O)OCC3C(F)F)nc1-2)C(N)=O | 103 |
| CC(Cn1ccc(-c2ccc(C#N)c(Cl)c2)n1)NC(=O)c1cc(C(C)O)[nH]n1 (centres undefined) + COc1c(OCCCN2CCOCC2)ccc2c3n(c(=NC(=O)c4cnc(N)nc4)nc12)CCN3 | 102 |
| C#Cc1c(F)ccc2cc(O)cc(-c3ncc4c(N5CC6CCC(C5)N6)nc(OCC56CCCN5CC(F)C6)nc4c3F)c12 (centres undefined) + Cc1nc(NC(=O)N2CCCC2C(N)=O)sc1-c1ccnc(C(C)(C)C(F)(F)F)c1 | 106 |
